Tested on: colon cancer cell line HT29
Experiment: EC50 titration, Alamar Blue, adherent cells
Assay type: cell-based
Details: Homo sapiens, HT-29, 72 h
Examples of molecules with documented EC50 follow.
Express it in µM; write the number only.

{"columns": ["molecule", "EC50 (µM)"],
 "data": [
  ["COc1ccc(-c2cnn3c(NCc4ccccn4)ccnc23)cc1OC [Compound 2]", 4.37]
]}

Q. Quick one: give measured EC50 for COc1ccc(-c2cnn3c(NCc4ccccn4)ccnc23)cc1 [Compound 3]
A. 0.74

Q. Quick one: give measured EC50 for Cc1csc(-c2cnn3c(NCc4ccccn4)ccnc23)c1 [Compound 10]
A. 1.78

Q. Quick one: give measured EC50 for Fc1ccccc1-c1cnn2c(NCc3ccccn3)ccnc12 [Compound 6]
A. 1.41

Q. Quick one: give measured EC50 for CN(C)c1cccc(-c2cnn3c(NCc4ccccn4)ccnc23)c1 [Compound 7]
A. 4.07

Q. Quick one: give measured EC50 for O=c1cc(N2CCOCC2)oc2c(-c3ccccc3)cccc12 [LY294002, reference compound]
A. 5.37

Q. Quick one: give measured EC50 for COc1ccc(-c2cnn3c(NCc4ccccn4)ccnc23)c(OC)c1 [Compound 4]
A. 1.58

Q. Quick one: give measured EC50 for COc1ccc(-c2cnn3c(NCc4ccccn4)ccnc23)cn1 [Compound 9]
A. 2

Q. Quick one: give measured EC50 for c1ccc(-c2cnn3c(NCc4ccccn4)ccnc23)cc1 [Compound 5]
A. 1.58

Q. Quick one: give measured EC50 for c1ccc(CNc2ccnc3c(-c4cccc5cccnc45)cnn23)nc1 [Compound 8]
A. 1.51

Q. Quick one: give measured EC50 for COc1cccc(-c2cnn3c(NCc4ccccn4)ccnc23)c1 [Compound 1]
A. 3.98
